System: Klebsiella pneumoniae ATCC 13882
Test: final pH-related absorbance (A557-A630) after 24 h (absorbance units); higher = more ureolysis; extreme values may be limits of the assay
Settings: 1 mM
final pH-related absorbance by entry:
Field format: numeric only.

>>> numeric_value("O[C@@H](CS)[C@@H](O)CS")
0.274
>>> numeric_value("C=C(CC)C(=O)c1ccc(OCC(=O)O)c(Cl)c1Cl")
0.128
>>> numeric_value("OCCS")
0
>>> numeric_value("O.O.O.O.O.O.O.O=S(=O)([O-])[O-].[Mg+2] [Magnesium sulfate]")
0.153
>>> numeric_value("NS(=O)(=O)O")
0.182

// final pH-related absorbance (Klebsiella pneumoniae ATCC 13882) for N[C@@H](Cc1c[nH]cn1)C(=O)O = 0.506

* * *

Tested on: Klebsiella pneumoniae ATCC 13882
Assay: final OD630 (growth) after 24 h; higher = more bacterial growth; extreme values may be limits of the assay
Conditions: 0.1 mM
Reported property: final OD630
Just the number, please.

As a guide, the following entries are already answered.
>>> numeric_value("C=C(CC)C(=O)c1ccc(OCC(=O)O)c(Cl)c1Cl")
0.437
>>> numeric_value("OCCS")
0.416
>>> numeric_value("O=S(O)S(=O)(=O)O")
0.462

Next molecule, final OD630 to be filled in.
The measured final OD630 associated with Oc1ccc(O)cc1 [Hydroquinone] reads 0.408

* * *

Recorded final pH-related absorbance values for a group of molecules are listed next.
System: Klebsiella pneumoniae ATCC 13882
Assay: final pH-related absorbance (A557-A630) after 24 h (absorbance units); higher = more ureolysis; extreme values may be limits of the assay
Settings: 1 mM
Where a name gives a salt, the structure may show the parent alone.
A bare number is all that is needed in reply.

Consider the following illustrative entries.
>>> numeric_value("O=S(O)(O)=S [Sodium thiosulfate]")
0.14
>>> numeric_value("O=C(O)CCC(CC(=O)O)C(=O)O (stereo unspecified)")
0.277
>>> numeric_value("O=[N+]([O-])C(Br)(CO)CO")
0
>>> numeric_value("C=CCNC(N)=S")
0.154

So, CNC(=O)NC ? Its final pH-related absorbance was 0.197

Measured final pH-related absorbance of CC(=O)NO [Acetohydroxamic acid] : 0.057

Entry Oc1ccc(O)cc1 [Hydroquinone] , final pH-related absorbance reported as 0.157

Reported final pH-related absorbance for O=C(O)C(=O)O was 0.291

GET /value?item= COC(=O)[C@@H](N)CS [L-cysteine methyl ester hydrochloride] &field=final pH-related absorbance returns 0

Please fill in: final pH-related absorbance reported for O=S(=O)(O)SSS(=O)(=O)O [Sodium tetrathionate dihydrate] = 0.492

Briefly, final pH-related absorbance measured for CN1CC(=O)NC1=N : 0.158

Noted for O=C(OC[C@H]1O[C@@H](OC(=O)c2cc(O)c(O)c(OC(=O)c3cc(O)c(O)c(O)c3)c2)[C@H](OC(=O)c2cc(O)c(O)c(OC(=O)c3cc(O)c(O)c(O)c3)c2)[C@@H](OC(=O)c2cc(O)c(O)c(OC(=O)c3cc(O)c(O)c(O)c3)c2)[C@@H]1OC(=O)c1cc(O)c(O)c(OC(=O)c2cc(O)c(O)c(O)c2)c1)c1cc(O)c(O)c(OC(=O)c2cc(O)c(O)c(O)c2)c1 : its final pH-related absorbance reads 0.125

Reported final pH-related absorbance ( NC(N)=S ) = 0.25

Value of final pH-related absorbance reported for the molecule O=[N+]([O-])[O-].[Ag+] is 0

Please fill in: final pH-related absorbance reported for N=C(N)N [Guanidine hydrochloride] = 0.27

For record NC(=O)NO [Hydroxyurea] the listed final pH-related absorbance is 0.198

Measured final pH-related absorbance, [F-].[Na+] [Sodium flouride] : 0

Sample [K+].[O]=[Mn](=[O])(=[O])[O-] [Potassium permanganate] ; final pH-related absorbance observed: 0

For reference, reported final pH-related absorbance for c1c[nH]cn1 stands at 0.164

CCOC(=O)[C@@H](N)CS [L-cysteine ethyl ester hydrochloride] yielded final pH-related absorbance of 0

Form: molecule = Oc1ccc(Cl)cc1 ; final pH-related absorbance = 0.09

* * *

System: Klebsiella pneumoniae ATCC 13882
Experiment: final pH-related absorbance (A557-A630) after 24 h (absorbance units); higher = more ureolysis; extreme values may be limits of the assay
Settings: 1 mM
Where a name gives a salt, the structure may show the parent alone.
Reported property: final pH-related absorbance
// return just the number, without any unit appended

See these solved cases before continuing.
>>> numeric_value("O=S([O-])[O-].[Na+].[Na+] [Sodium sulfite]")
0.373
>>> numeric_value("O=S(O)S(=O)(=O)O")
0.356
>>> numeric_value("N#C[S-].[Na+] [Sodium thiocyanate]")
0.144
>>> numeric_value("NCCS [Cysteamine hydrochloride]")
0.246
>>> numeric_value("CC(O)(P(=O)(O)O)P(=O)(O)O [Etidronic acid monohydrate]")
0.28
>>> numeric_value("CNC(N)=O")
0.174

Now turn to the next compound.
Assay Klebsiella pneumoniae ATCC 13882, sample OB(O)O , final pH-related absorbance read: 0.418

* * *

Test system: Klebsiella pneumoniae ATCC 13882
Experiment: final OD630 (growth) after 24 h; higher = more bacterial growth; extreme values may be limits of the assay
Details: 10 mM
Where a name gives a salt, the structure may show the parent alone.
Label satisfied when final OD630 is at or above 0.02; anything below gets not satisfied.

Check out these entries, answers already filled in.
>>> cat("N[C@@H](CS)C(=O)O")
"satisfied"
>>> cat("NS(=O)(=O)O")
"not satisfied"
>>> cat("N[C@@H](Cc1c[nH]cn1)C(=O)O")
"satisfied"
>>> cat("CC(=O)NO [Acetohydroxamic acid]")
"satisfied"
>>> cat("N=C(N)N [Guanidine hydrochloride]")
"satisfied"

# bool: final OD630 of NCCS [Cysteamine hydrochloride] >= 0.02
satisfied

State whether the measured final OD630 reaches 0.02, counting equality as reaching it, for CN1CC(=O)NC1=N
satisfied

Determine whether measured final OD630 meets or exceeds 0.02 for O=S(=O)(O)SSS(=O)(=O)O [Sodium tetrathionate dihydrate]
satisfied

* * *

System: Klebsiella pneumoniae ATCC 13882
Assay: onset of ureolytic pH increase; higher = more delayed ureolysis (inhibition)
Conditions: 10 mM
Structures can show the parent of a compound that is named as a salt.
Listed here: items and their measured onset of ureolytic pH increase.
Supply the numeric figure in min, leaving out any unit text.

These solved cases illustrate the format of a correct answer.
>>> numeric_value("N=C(N)N [Guanidine hydrochloride]")
436
>>> numeric_value("NC=O [Formamide]")
572
>>> numeric_value("O=S(=O)(O)SSS(=O)(=O)O [Sodium tetrathionate dihydrate]")
430
>>> numeric_value("O.O.O.O.O.O.O.O=S(=O)([O-])[O-].[Mg+2] [Magnesium sulfate]")
555
>>> numeric_value("N#C[S-].[Na+] [Sodium thiocyanate]")
770

Now for the compound whose onset of ureolytic pH increase we want.
Field onset of ureolytic pH increase (Klebsiella pneumoniae ATCC 13882), entry C=CCNC(N)=S : 776

* * *

Test system: Klebsiella pneumoniae ATCC 13882
Assay: onset of ureolytic pH increase; higher = more delayed ureolysis (inhibition)
Settings: 10 mM
Listing: onset of ureolytic pH increase of selected compounds

Record excerpt, results attached:
>>> result("O=C(OC[C@H]1O[C@@H](OC(=O)c2cc(O)c(O)c(OC(=O)c3cc(O)c(O)c(O)c3)c2)[C@H](OC(=O)c2cc(O)c(O)c(OC(=O)c3cc(O)c(O)c(O)c3)c2)[C@@H](OC(=O)c2cc(O)c(O)c(OC(=O)c3cc(O)c(O)c(O)c3)c2)[C@@H]1OC(=O)c1cc(O)c(O)c(OC(=O)c2cc(O)c(O)c(O)c2)c1)c1cc(O)c(O)c(OC(=O)c2cc(O)c(O)c(O)c2)c1")
"> 1500 min"
>>> result("OCCS")
"> 1500 min"

Attention now shifts to the item below.
Memo: NC(N)=S , reported onset of ureolytic pH increase: 456 min

* * *

Tested on: Klebsiella pneumoniae ATCC 13882
Experiment: final pH-related absorbance (A557-A630) after 24 h (absorbance units); higher = more ureolysis; extreme values may be limits of the assay
Conditions: 1 mM
# final pH-related absorbance values compiled below
Please reply with the value in numeric form only.

Please review the following examples before continuing.
>>> numeric_value("Oc1ccccc1O")
0.369
>>> numeric_value("NC=O [Formamide]")
0.172

Now for the compound whose final pH-related absorbance we want.
Measured final pH-related absorbance, N[C@@H](CS)C(=O)O : 0

* * *

Readings of onset of ureolytic pH increase for the listed compounds
Test system: Klebsiella pneumoniae ATCC 13882
Experiment: onset of ureolytic pH increase; higher = more delayed ureolysis (inhibition)
Conditions: 10 mM

Consider the reported onset of ureolytic pH increase for these compounds:
>>> result("O[C@@H](CS)[C@@H](O)CS [1.4-dithiothreitol]")
"16.8 h"
>>> result("O=[N+]([O-])[O-].[Ag+] [AgNO3]")
"> 25 h"
>>> result("N[C@@H](Cc1c[nH]cn1)C(=O)O [L-histidine]")
"9.8 h"

Query CC(O)(P(=O)(O)O)P(=O)(O)O [Etidronic acid monohydrate] yields onset of ureolytic pH increase of > 15 h

Lab note: [F-].[Na+] [Sodium flouride] gave onset of ureolytic pH increase of > 25 h

The measured onset of ureolytic pH increase associated with CC(=O)NO [Acetohydroxamic acid] reads > 15 h

meta.source: the supplement of paper PMC7244745
